Hey, just so you know, these numbers are from patent US20240207292A1.

# subject-of-test: recombinant human fibroblast activation protein (FAP) (Homo sapiens (Human), UniProt Q12884)
# Sequence (Q12884 whole entry): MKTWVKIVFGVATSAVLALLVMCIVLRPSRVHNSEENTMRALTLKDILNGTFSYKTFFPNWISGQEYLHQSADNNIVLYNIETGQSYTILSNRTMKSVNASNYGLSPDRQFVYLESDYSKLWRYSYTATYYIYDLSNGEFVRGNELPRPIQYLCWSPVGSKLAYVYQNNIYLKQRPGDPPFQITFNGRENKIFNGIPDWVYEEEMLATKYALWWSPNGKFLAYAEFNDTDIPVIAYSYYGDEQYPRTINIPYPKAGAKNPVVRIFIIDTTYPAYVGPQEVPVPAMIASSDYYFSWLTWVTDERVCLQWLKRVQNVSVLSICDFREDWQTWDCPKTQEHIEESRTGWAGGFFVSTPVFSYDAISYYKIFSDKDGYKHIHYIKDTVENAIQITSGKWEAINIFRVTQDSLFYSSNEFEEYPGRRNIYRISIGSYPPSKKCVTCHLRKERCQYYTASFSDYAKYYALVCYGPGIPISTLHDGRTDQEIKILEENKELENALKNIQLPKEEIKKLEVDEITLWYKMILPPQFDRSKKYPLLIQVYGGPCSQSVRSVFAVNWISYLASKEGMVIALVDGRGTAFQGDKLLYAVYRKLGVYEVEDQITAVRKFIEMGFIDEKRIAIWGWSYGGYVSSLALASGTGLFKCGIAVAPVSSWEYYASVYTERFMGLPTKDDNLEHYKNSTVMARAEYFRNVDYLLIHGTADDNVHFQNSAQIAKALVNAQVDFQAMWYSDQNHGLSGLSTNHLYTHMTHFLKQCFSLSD
# method: In vitro assay fibroblast activation protein IC50 (Example 21)
# Type: biochemical
# details: Z-Gly-Pro-AMC; 1.2 nM enzyme
Square brackets hold non-standard residues; d marks the D form. Peptide text beside a SMILES is read from it. * marks the point of attachment. DOTA = O=C(O)CN1CCN(CC(=O)O)CCN(CC(=O)*)CCN(CC(=O)O)CC1; boroPro = OB(O)[C@@H]1CCCN1*
value-kind: pIC50
pIC50 is defined as minus the log10 of a concentration measured in mol/L.

Known pIC50 results, listed for orientation:
C[C@@H](NC(=O)[C@H]1CC[C@H](CNC(=O)CN2CCN3CCN4CCN(CC2)CC(=O)[O][Ga]([O]C(=O)C3)[O]C(=O)C4)CC1)C(=O)N1CCC[C@H]1B(O)O: 7.06
CC(C)[C@H](NC(=O)[C@@H](C)NC(=O)CNC(=O)CNC(=O)CNC(=O)CN1CCN(CC(=O)O)CCN(CC(=O)O)CCN(CC(=O)O)CC1)C(=O)N[C@H](C)C(=O)N1CCC[C@H]1B(O)O [compound 6839] ({DOTA}-GGG[dA]V[dA]-boroPro): 7.68
CC(C)[C@H](NC(=O)CNC(=O)CNC(=O)CNC(=O)CNC(=O)CNC(=O)CN1CCN(CC(=O)O)CCN(CC(=O)O)CCN(CC(=O)O)CC1)C(=O)N[C@H](C)C(=O)N1CCC[C@H]1B(O)O [compound 6848] ({DOTA}-GGGGGV[dA]-boroPro): 7.83
CC(C)[C@H](NC(=O)CNC(=O)CC[C@@H]1C(=O)[O][Lu]23[O]C(=O)CN4CCN(CCN1CCN(CC4)CC(=O)[O]2)CC(=O)[O]3)C(=O)N[C@H](C)C(=O)N1CCC[C@H]1B(O)O: 7.22

Asked: Need pIC50, item CC(C)[C@H](NC(=O)CCNC(=O)CN1CCN(CC(=O)O)CCN(CC(=O)O)CCN(CC(=O)O)CC1)C(=O)N[C@H](C)C(=O)N1CCC[C@H]1B(O)O
Given back: 6.92
